Test System: T1, peptide HNGGLCEEISQEVR (SEQ ID NO:82), N-terminally biotinylated (human)
T1 construct: Human lactadherin 14-mer with part of the RGD domain at the C-terminus
T1 peptide: Biotin-HNGGLCEEISQEVR
Measurement Description: ELISA, biotin-peptide on neutravidin plate, antibody 1 ug/ml
Ends that are not written are not given here. * marks the point of attachment. Biotin = O=C1N[C@H]2[C@H](CS[C@H]2CCCCC(=O)*)N1
Assay Metric: absorbance 450 nm minus 540 nm
The number alone won't do; follow it with the unit.

Q. Please give the measured absorbance 450 nm minus 540 nm for this binder: anti-lactadherin antibody 215A9 (antibody, IgG1, V domains shown, also called 2154A9; hybridoma 215A9) VH: QVSLKESGPGILQSSQTLSLTCSFSGFSLSTSGMGVSWIRQPSGKGLEWLAHIYWNDDKRYNPSLKSRLTISKDTSRDQVFLKITSVDTADTATYFCARRPRFYRDYDEGIDFWGQGTTLTVSS VL: QAVVTQESALTTSPGETVTLTCRSSTGAVTTNNYANWVQEKPDHLFTGLIGGTNNRTPGVPARFSGSLIGDKAALTITGAQTEDEAIYFCALWYSNLWVFGGGTKLTVLG
A. 0.03 absorbance
